# measuredTarget: MAP kinase-activated protein kinase 3 (Homo sapiens) (UniProt Q16644)
# Sequence (Q16644 whole entry, looked up): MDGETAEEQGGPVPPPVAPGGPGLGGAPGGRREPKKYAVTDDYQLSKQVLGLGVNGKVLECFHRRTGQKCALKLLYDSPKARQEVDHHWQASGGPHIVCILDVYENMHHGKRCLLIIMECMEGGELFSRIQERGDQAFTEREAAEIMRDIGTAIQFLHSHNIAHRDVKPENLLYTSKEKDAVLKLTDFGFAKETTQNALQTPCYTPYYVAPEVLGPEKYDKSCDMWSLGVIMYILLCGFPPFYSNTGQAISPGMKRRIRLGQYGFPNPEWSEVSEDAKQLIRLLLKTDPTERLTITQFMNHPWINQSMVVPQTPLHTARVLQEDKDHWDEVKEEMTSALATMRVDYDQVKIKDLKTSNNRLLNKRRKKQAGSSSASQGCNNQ
# measurementParameters: at 1 µM
# Description: GSK_PKIS: MAPKAPK3 mean inhibition at 1 uM [Nanosyn]
molecules and their reported inhibition
Note: unit % is implicit; provide only the numeric part.

>>> print(df.to_string())
                                 smilescode  assayreadout  scaleunit  value
0  CNC(=O)c1ncccc1Nc1nc(Nc2cc3c(cc2OC)CCCN3C(=O)CN(C)C)nc2[nH]ccc12    inhibition          %   2.72

Can you look up the measured inhibition of O=C1Nc2ccccc2/C1=C1\CCc2cc(O)ccc21 for me?
-1.15

Can you look up the measured inhibition of CCn1c(-c2nonc2N)nc2cncc(C(=O)NCCNC)c21 for me?
3.94

Can you look up the measured inhibition of CCS(=O)(=O)c1ccc(OC)c(Nc2ncc(-c3cccc(C(C)=O)c3)o2)c1 for me?
3.61

Can you look up the measured inhibition of c1ccc(-c2n[nH]cc2-c2ccnc(-c3ccc(OCCn4ccnc4)cc3)c2)nc1 for me?
4.97

Can you look up the measured inhibition of O=C(O[C@H]1CN[C@H](C#Cc2cc3ncnc(Nc4ccc(OCc5cccc(F)c5)c(Cl)c4)c3s2)C1)N1CCOCC1 for me?
-0.5

Can you look up the measured inhibition of Cc1nnc(-c2cccc(-c3ccc(C(=O)NCC4CC4)cc3)c2)o1 for me?
6.73

Can you look up the measured inhibition of COc1ccc2ncn(-c3cc(O[C@H](C)c4ccccc4C(F)(F)F)c(C(N)=O)s3)c2c1 for me?
-0.93

Can you look up the measured inhibition of COC(=O)Nc1nc2cc(Oc3ccc(NC(=O)Nc4ccccc4)cc3)ccc2[nH]1 for me?
2.32

Can you look up the measured inhibition of COc1c(C(N)=O)cc(-c2ccc(Cl)cc2)cc1-c1ccc(S(N)(=O)=O)cc1 for me?
8.63

Can you look up the measured inhibition of CN(C)CCNC(=O)Nc1ccc(N(C)c2ccnc(Nc3ccc(CS(C)(=O)=O)cc3)n2)cc1 for me?
2.99

Can you look up the measured inhibition of CS(=O)(=O)Nc1ccc(-c2cc(-c3ccccc3)cc(C(N)=O)c2N)cc1 for me?
2.22

Can you look up the measured inhibition of O=C(O[C@H]1CN[C@H](C#Cc2cc3ncnc(Nc4ccc5c(ccn5Cc5cc(F)ccc5F)c4)c3s2)C1)N1CCOCC1 for me?
-1.03

Can you look up the measured inhibition of Cn1c(-c2nonc2N)nc2cnccc21 for me?
2.75

Can you look up the measured inhibition of FC(F)(F)CNc1nccc(-c2cnn3ncccc23)n1 for me?
3.54

Can you look up the measured inhibition of CS(=O)(=O)Nc1ccc(-c2ccc3c(NC(=O)C4CC4)n[nH]c3c2)cc1 for me?
3.44

Can you look up the measured inhibition of COc1ccccc1-c1cc(/C=C2\C(=O)Nc3ncc(Br)cc32)cc(Br)c1O for me?
6.33

Can you look up the measured inhibition of CC1(C)CC(n2cnc(-c3ccc(F)cc3)c2-c2ccnc(N)n2)CC(C)(C)N1 for me?
26.4

Can you look up the measured inhibition of CCS(=O)(=O)c1ccc(OC)c(Nc2ncc(-c3cccc(F)c3)o2)c1 for me?
7.04

Can you look up the measured inhibition of CNC(=O)c1cncc(/C=C/c2ccccc2C)c1 for me?
3.22

Can you look up the measured inhibition of OCCCNc1nccc(-c2c(-c3ccc(F)cc3)nn3cc(C(F)(F)F)ccc23)n1 for me?
36.3
